Hey, just so you know, these numbers are from ChEMBL document CHEMBL3885861.

Species: Rattus norvegicus
assay method text: Open TG-GATES - Regimen: Single
Assay type: toxicity, organism-based, Sprague-Dawley
Design: regimen Single, gender Male, age 6 weeks
stated conditions: in vivo, po, 1000 mg/kg, 9 h, tissue Plasma, route gavage, dose level High
recorded metric: ALT (IU/L)

[
  {
    "molecule": "CCOC(=O)CCC(=O)O[C@H]1[C@H](O[C@@H]2[C@@H](C)[C@H](O[C@H]3C[C@@](C)(OC)[C@@H](O)[C@H](C)O3)[C@@H](C)C(=O)O[C@H](CC)[C@@](C)(O)[C@H](O)[C@@H](C)C(=O)[C@H](C)C[C@@]2(C)O)O[C@H](C)C[C@@H]1N(C)C [ERYTHROMYCIN ETHYLSUCCINATE]",
    "recorded metric": "ALT",
    "numeric result": 40.4
  },
  {
    "molecule": "NC(N)=Nc1nc(CSCCC(N)=NS(N)(=O)=O)cs1 [FAMOTIDINE]",
    "recorded metric": "ALT",
    "numeric result": 28
  },
  {
    "molecule": "CC(C)OC(=O)C(C)(C)Oc1ccc(C(=O)c2ccc(Cl)cc2)cc1 [FENOFIBRATE]",
    "recorded metric": "ALT",
    "numeric result": 48.4
  },
  {
    "molecule": "COC1=CC(=O)C[C@@H](C)[C@]12Oc1c(Cl)c(OC)cc(OC)c1C2=O [GRISEOFULVIN]",
    "recorded metric": "ALT",
    "numeric result": 31.4
  }
]

###

Species: Rattus norvegicus
assay method text: Open TG-GATES - Regimen: Daily Repeat
Assay type: toxicity, organism-based, Sprague-Dawley
Design: regimen Daily Repeat, gender Male, age 6 weeks
stated conditions: in vivo, po, 10 mg/kg, 72 h, tissue Blood, route gavage, dose level Low, time 3 day
recorded metric: Ht (%)

[
  {
    "molecule": "CC(C)OC(=O)C(C)(C)Oc1ccc(C(=O)c2ccc(Cl)cc2)cc1 [FENOFIBRATE]",
    "numeric result": 39.2
  },
  {
    "molecule": "CN(C)CCN(Cc1cccs1)c1ccccn1",
    "numeric result": 39.1
  },
  {
    "molecule": "CC1=C(/C=C/C(C)=C/C=C/C(C)=C/CO)C(C)(C)CCC1",
    "numeric result": 38.9
  },
  {
    "molecule": "CN(C)CCCN1c2ccccc2CCc2ccccc21",
    "numeric result": 41.4
  }
]

###

IP values, listed per item
Species on record: Rattus norvegicus
assay method text: Open TG-GATES - Regimen: Single
Type: toxicity, organism-based, Sprague-Dawley
Parameters: regimen Single, gender Male, age 6 weeks
stated conditions: in vivo, po, 0 mg/kg, 6 h, tissue Plasma, route gavage, dose level Control
recorded metric: IP (mg/dL)

[
  {
    "molecule": "O=C(CCCN1CCC(O)(c2ccc(Cl)cc2)CC1)c1ccc(F)cc1",
    "numeric result": 10.1
  },
  {
    "molecule": "Cc1ccc(C)c(OCCCC(C)(C)C(=O)O)c1",
    "numeric result": 10.9
  },
  {
    "molecule": "CCCNC(=O)NS(=O)(=O)c1ccc(Cl)cc1 [CHLORPROPAMIDE]",
    "numeric result": 9.8
  },
  {
    "molecule": "C[C@@H]1C[C@H]2[C@@H]3CCC4=CC(=O)C=C[C@]4(C)[C@@]3(F)[C@@H](O)C[C@]2(C)[C@@]1(O)C(=O)CO",
    "numeric result": 9.5
  }
]

###

Organism: Rattus norvegicus
assay method text: Open TG-GATES - Regimen: Single
Format: toxicity, organism-based, Sprague-Dawley
Parameters: regimen Single, gender Male, age 6 weeks
stated conditions: in vivo, po, 100 mg/kg, 3 h, tissue Blood, route gavage, dose level High

[
  {
    "structure string": "CN(C)CCCN1c2ccccc2CCc2ccc(Cl)cc21",
    "endpoint unit": "%",
    "Eos": 0.8
  },
  {
    "structure string": "CN(C)CCN(Cc1cccs1)c1ccccn1",
    "endpoint unit": "%",
    "Eos": 0.8
  },
  {
    "structure string": "CC1=C(/C=C/C(C)=C/C=C/C(C)=C/CO)C(C)(C)CCC1",
    "endpoint unit": "%",
    "Eos": 1
  },
  {
    "structure string": "CN(C)CCCN1c2ccccc2CCc2ccccc21",
    "endpoint unit": "%",
    "Eos": 0.5
  }
]

###

Species on record: Rattus norvegicus
assay method text: Open TG-GATES - Regimen: Daily Repeat
Assay type: toxicity, organism-based, Sprague-Dawley
Parameters: regimen Daily Repeat, gender Male, age 6 weeks
stated conditions: in vivo, po, 100 mg/kg, […], tissue Blood, route gavage, dose level Low, time 14 day

[
  {
    "compound": "CCOc1ccc(NC(=O)CC(C)O)cc1 (stereo not given) [BUCETIN]",
    "MCV / fL": 59.3
  },
  {
    "compound": "CCOC(=O)CCC(=O)O[C@H]1[C@H](O[C@@H]2[C@@H](C)[C@H](O[C@H]3C[C@@](C)(OC)[C@@H](O)[C@H](C)O3)[C@@H](C)C(=O)O[C@H](CC)[C@@](C)(O)[C@H](O)[C@@H](C)C(=O)[C@H](C)C[C@@]2(C)O)O[C@H](C)C[C@@H]1N(C)C [ERYTHROMYCIN ETHYLSUCCINATE]",
    "MCV / fL": 59.1
  },
  {
    "compound": "NC(N)=Nc1nc(CSCCC(N)=NS(N)(=O)=O)cs1 [FAMOTIDINE]",
    "MCV / fL": 60
  },
  {
    "compound": "COc1ccc2[nH]c([S+]([O-])Cc3ncc(C)c(OC)c3C)nc2c1 (stereo not given) [OMEPRAZOLE]",
    "MCV / fL": 59.1
  },
  {
    "compound": "COC1=CC(=O)C[C@@H](C)[C@]12Oc1c(Cl)c(OC)cc(OC)c1C2=O [GRISEOFULVIN]",
    "MCV / fL": 60.6
  }
]

###

Species: Rattus norvegicus
assay method text: Open TG-GATES - Regimen: Single
Format: toxicity, organism-based, Sprague-Dawley
Design: regimen Single, gender Male, age 6 weeks
stated conditions: in vivo, po, 30 mg/kg, 3 h, tissue Plasma, route gavage, dose level Middle
AST values, listed per item
recorded metric: AST (IU/L)

[
  {
    "compound": "CC1=C(/C=C/C(C)=C/C=C/C(C)=C/CO)C(C)(C)CCC1 [RETINOL]",
    "recorded metric": "AST",
    "numeric result": 80
  },
  {
    "compound": "CN(C)CCCN1c2ccccc2CCc2ccccc21 [IMIPRAMINE]",
    "recorded metric": "AST",
    "numeric result": 70.2
  },
  {
    "compound": "CN(C)CCCN1c2ccccc2CCc2ccc(Cl)cc21 [CLOMIPRAMINE]",
    "recorded metric": "AST",
    "numeric result": 77.8
  },
  {
    "compound": "CN(C)CCN(Cc1cccs1)c1ccccn1",
    "recorded metric": "AST",
    "numeric result": 73.6
  }
]

###

Organism: Rattus norvegicus
assay method text: Open TG-GATES - Regimen: Daily Repeat
Type: toxicity, organism-based, Sprague-Dawley
Design: regimen Daily Repeat, gender Male, age 6 weeks
stated conditions: in vivo, po, 300 mg/kg, […], tissue Plasma, route gavage, dose level Middle, time 7 day
PL values, listed per item

[
  {
    "compound": "CCOC(=O)CCC(=O)O[C@H]1[C@H](O[C@@H]2[C@@H](C)[C@H](O[C@H]3C[C@@](C)(OC)[C@@H](O)[C@H](C)O3)[C@@H](C)C(=O)O[C@H](CC)[C@@](C)(O)[C@H](O)[C@@H](C)C(=O)[C@H](C)C[C@@]2(C)O)O[C@H](C)C[C@@H]1N(C)C [ERYTHROMYCIN ETHYLSUCCINATE]",
    "endpoint unit": "mg/dL",
    "PL": 148.2
  },
  {
    "compound": "COc1ccc2[nH]c([S+]([O-])Cc3ncc(C)c(OC)c3C)nc2c1 (stereo not given) [OMEPRAZOLE]",
    "endpoint unit": "mg/dL",
    "PL": 173.8
  },
  {
    "compound": "NC(N)=Nc1nc(CSCCC(N)=NS(N)(=O)=O)cs1 [FAMOTIDINE]",
    "endpoint unit": "mg/dL",
    "PL": 161
  },
  {
    "compound": "CCOc1ccc(NC(=O)CC(C)O)cc1 (stereo not given) [BUCETIN]",
    "endpoint unit": "mg/dL",
    "PL": 178
  },
  {
    "compound": "COC1=CC(=O)C[C@@H](C)[C@]12Oc1c(Cl)c(OC)cc(OC)c1C2=O [GRISEOFULVIN]",
    "endpoint unit": "mg/dL",
    "PL": 122.8
  }
]
